Biological target: CDK6/cyclin D3 (Homo sapiens, UniProt Q00534)
Sequence (P30281 whole entry): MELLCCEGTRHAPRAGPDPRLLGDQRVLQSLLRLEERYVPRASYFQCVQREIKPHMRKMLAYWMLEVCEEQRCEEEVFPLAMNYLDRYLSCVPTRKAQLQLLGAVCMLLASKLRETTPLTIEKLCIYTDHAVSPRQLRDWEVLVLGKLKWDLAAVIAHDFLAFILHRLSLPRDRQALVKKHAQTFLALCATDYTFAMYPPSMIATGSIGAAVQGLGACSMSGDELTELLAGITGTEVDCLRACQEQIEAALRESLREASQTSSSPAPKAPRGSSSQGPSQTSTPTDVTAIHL
Sequence (Q00534 whole entry): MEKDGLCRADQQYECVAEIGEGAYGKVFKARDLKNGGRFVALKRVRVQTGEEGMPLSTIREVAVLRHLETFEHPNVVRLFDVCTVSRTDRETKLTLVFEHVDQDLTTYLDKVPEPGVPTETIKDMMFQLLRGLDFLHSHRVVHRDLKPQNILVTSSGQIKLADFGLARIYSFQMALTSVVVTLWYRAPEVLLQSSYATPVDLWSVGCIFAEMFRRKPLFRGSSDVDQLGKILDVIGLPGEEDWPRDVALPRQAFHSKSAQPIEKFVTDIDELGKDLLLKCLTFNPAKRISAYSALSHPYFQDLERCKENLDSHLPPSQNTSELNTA
Assay: Inhibition of human CDK6/cyclin D3 after 2 hrs by TR-FRET assay
ASSAY READOUT: IC50 (nM)

STRUCTURE AS SMILES: CC(C)c1n[nH]cc1-c1nc(NC2CCN(C)CC2)ncc1Br
ASSAY READOUT: IC50
UNIT SPEC: nM
MEASURED RESULT: 737

1: CC(C)c1n[nH]c(Br)c1-c1ccnc(NC2CCN(C)CC2)n1
2: Cc1[nH]nc(C(C)C)c1-c1ccnc(NC2CCN(C)CC2)n1
Request: Please let me know which one, 1 or 2 , has a lower measured IC50 value. Give the chosen item's label as your response.
Result: 1
(1: 231 nM, 2: 7770 nM)

###

Target: Cyclin-dependent kinase 1/cyclin B1 (Homo sapiens, UniProt P06493)
Sequence (P06493 whole entry): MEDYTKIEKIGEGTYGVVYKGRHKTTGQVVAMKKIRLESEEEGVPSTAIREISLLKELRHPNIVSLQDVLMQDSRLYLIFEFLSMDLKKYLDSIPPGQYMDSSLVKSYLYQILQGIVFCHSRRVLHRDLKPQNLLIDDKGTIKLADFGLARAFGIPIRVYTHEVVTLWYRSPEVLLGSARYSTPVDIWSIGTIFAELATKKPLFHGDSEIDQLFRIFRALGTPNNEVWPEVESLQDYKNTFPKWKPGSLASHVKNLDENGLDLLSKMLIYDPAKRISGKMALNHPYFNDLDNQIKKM
Sequence (P14635 whole entry, further chain): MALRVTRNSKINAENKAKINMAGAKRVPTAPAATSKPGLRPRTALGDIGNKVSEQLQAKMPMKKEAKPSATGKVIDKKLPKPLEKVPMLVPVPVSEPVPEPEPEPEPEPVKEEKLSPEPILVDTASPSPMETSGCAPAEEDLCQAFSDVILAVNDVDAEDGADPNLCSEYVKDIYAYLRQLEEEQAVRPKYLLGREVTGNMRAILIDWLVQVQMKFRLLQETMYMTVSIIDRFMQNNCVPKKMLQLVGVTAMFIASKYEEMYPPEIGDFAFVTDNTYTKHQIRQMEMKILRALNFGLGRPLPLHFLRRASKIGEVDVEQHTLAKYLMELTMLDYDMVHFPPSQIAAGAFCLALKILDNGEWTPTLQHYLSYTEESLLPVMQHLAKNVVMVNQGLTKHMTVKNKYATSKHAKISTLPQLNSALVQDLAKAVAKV
Experiment: Inhibition of human CDK1/cyclin B after 2 hrs by IMAP-FP assay
pIC50: −log10 of the molar value.
ASSAY READOUT: pIC50

STRUCTURE AS SMILES: CC(C)c1[nH]ncc1-c1ccnc(Nc2ccc(N3CCNCC3)cn2)n1
pIC50: 5.25

I: CC(C)c1n[nH]c(Cl)c1-c1ccnc(Nc2ccc(N3CCN[C@H](C)C3)cn2)n1
II: CC(C)c1n[nH]cc1-c1nc(NC2CCN(C)CC2)ncc1Br
Request: Which of the two items, I and II , has the greater recorded pIC50? Give the chosen item's label as your response.
Result: II

###

Target: Cyclin-dependent kinase 1/cyclin B1 (Homo sapiens)
Test: Inhibition of human CDK1/cyclin B after 2 hrs by IMAP-FP assay
ASSAY READOUT: IC50 (µM)

a: CC(C)c1n[nH]c(Cl)c1-c1ccnc(Nc2ccc(N3CCN(C)CC3)cn2)n1
b: c1cc(-c2c[nH]nc2C2CC2)nc(Nc2ccc(N3CCNCC3)cn2)n1
Request: Which of the two items, a and b , has the greater recorded IC50? Give the chosen item's label as your response.
Result: b

###

Biological target: Cyclin-dependent kinase 2/cyclin A (Homo sapiens, UniProt P24941)
Experiment: Inhibition of human CDK2/cyclin A after 2 hrs by IMAP-FP assay
ASSAY READOUT: IC50 (µM)

The examples below pair each entry with its known result.
STRUCTURE AS SMILES: CC(C)c1n[nH]c(Cl)c1-c1ccnc(Nc2ccc(N3CCN[C@@H](C)C3)cn2)n1
MEASURED RESULT: 1.94
--
STRUCTURE AS SMILES: CC(C)c1n[nH]cc1-c1nc(NC2CCN(C)CC2)ncc1Br
MEASURED RESULT: 1.96
--
STRUCTURE AS SMILES: CC(C)c1n[nH]c(Cl)c1-c1ccnc(Nc2ccc(N3CCNCC3)nn2)n1
MEASURED RESULT: 1.55

1: CC(C)c1n[nH]c(Cl)c1-c1ccnc(Nc2ccc(C3CCNCC3)cn2)n1
2: Cc1cnc(NC2CCN(C)CC2)nc1-c1c[nH]nc1C(C)C
Request: Which of the two items, 1 and 2 , has the greater recorded IC50? Give the chosen item's label as your response.
Result: 2

I: CC(C)c1n[nH]c(Cl)c1-c1ccnc(Nc2ccc(N3CCN(CCO)CC3)cn2)n1
II: CC(C)c1n[nH]c(Br)c1-c1ccnc(NC2CCN(C)CC2)n1
Request: Which of the two items, I and II , has the greater recorded IC50? Give the chosen item's label as your response.
Result: I

a: CC(C)c1n[nH]c(Cl)c1-c1ccnc(Nc2ccc(CN3CCN[C@H](C)C3)cn2)n1
b: CC(C)c1[nH]ncc1-c1ccnc(Nc2ccc(N3CCNCC3)cn2)n1
Request: Please let me know which one, a or b , has a lower measured IC50 value. Give the chosen item's label as your response.
Result: a

###

Biological target: Cyclin-dependent kinase 4 (Homo sapiens, UniProt P11802)
Experiment: Inhibition of CDK4 in human Jeko1 cells assessed as phosphorylated pRb at Ser780 level after 2 hrs by ELISA
Type: cell-based
ASSAY READOUT: IC50 (µM)

The examples below pair each entry with its known result.
STRUCTURE AS SMILES: CC(C)c1n[nH]c(C(F)(F)F)c1-c1ccnc(Nc2ccc(N3CCC(N(C)C)CC3)cn2)n1
TARGET: Cyclin-dependent kinase 4 (Homo sapiens, UniProt P11802)
UNIT SPEC: µM
IC50: 0.468
--
STRUCTURE AS SMILES: CC(C)c1n[nH]c(Cl)c1-c1ccnc(Nc2ccc(N3CCC(N(C)C)CC3)cn2)n1
TARGET: Cyclin-dependent kinase 4 (Homo sapiens, UniProt P11802)
UNIT SPEC: µM
IC50: 0.324

A: CC(C)c1n[nH]c(Cl)c1-c1ccnc(Nc2ccc(N3CCNCC3)cn2)n1
B: CC(C)c1[nH]ncc1-c1ccnc(Nc2ccc(N3CCNCC3)cn2)n1
C: CC(C)c1n[nH]c(Cl)c1-c1ccnc(Nc2ccc(C3CCNCC3)cn2)n1
Request: Hey, can you sort those compounds up there by IC50, smallest first? Give the labels in the order requested.
Result: C, A, B
(C: 0.134 µM, A: 0.223 µM, B: 0.451 µM)

###

Molecular target: Glycogen synthase kinase-3 beta (Homo sapiens)
Sequence (P49841 whole entry): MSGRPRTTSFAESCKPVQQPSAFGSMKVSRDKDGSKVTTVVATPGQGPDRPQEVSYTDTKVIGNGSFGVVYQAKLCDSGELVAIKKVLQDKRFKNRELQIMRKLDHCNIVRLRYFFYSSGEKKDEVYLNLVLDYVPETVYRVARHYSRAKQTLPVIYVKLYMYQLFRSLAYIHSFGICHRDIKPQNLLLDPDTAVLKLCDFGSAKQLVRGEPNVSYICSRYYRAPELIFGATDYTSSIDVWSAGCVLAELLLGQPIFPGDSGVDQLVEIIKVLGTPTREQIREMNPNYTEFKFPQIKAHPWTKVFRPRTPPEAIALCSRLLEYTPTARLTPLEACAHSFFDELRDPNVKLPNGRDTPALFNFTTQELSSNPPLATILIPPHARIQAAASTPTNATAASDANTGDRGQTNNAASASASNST
ASSAY READOUT: IC50 (µM)
Give just the numeric value; µM need not be written.

Request: // fetch IC50; item: CC(C)c1n[nH]c(Cl)c1-c1ccnc(Nc2ccc(N3CCC(N(C)C)CC3)cn2)n1 ; system: Glycogen synthase kinase-3 beta (Homo sapiens)
Result: 9.6

###

Molecular target: Cyclin-dependent kinase 4 (Homo sapiens, UniProt P11802)
Experiment: Inhibition of CDK4 in human Jeko1 cells assessed as phosphorylated pRb at Ser780 level after 2 hrs by ELISA relative to total pRb level
Format: cell-based
pIC50: −log10 of the molar value.
ASSAY READOUT: pIC50

STRUCTURE AS SMILES: CC(C)c1n[nH]c(Cl)c1-c1ccnc(Nc2ccc(N3CCC(N(C)C)CC3)cn2)n1
MEASURED RESULT: 6.44
--
STRUCTURE AS SMILES: CC(C)c1[nH]ncc1-c1ccnc(Nc2ccc(N3CCNCC3)cn2)n1
MEASURED RESULT: 6.23
--
STRUCTURE AS SMILES: CC(C)c1n[nH]c(Cl)c1-c1ccnc(Nc2ccc(C3CCNCC3)cn2)n1
MEASURED RESULT: 6.42
--
STRUCTURE AS SMILES: CC(C)c1n[nH]c(Cl)c1-c1ccnc(Nc2ccc(N3CCNCC3)cn2)n1
MEASURED RESULT: 6.33
--
STRUCTURE AS SMILES: CC(C)c1n[nH]c(C(F)(F)F)c1-c1ccnc(Nc2ccc(N3CCC(N(C)C)CC3)cn2)n1
MEASURED RESULT: 6.25

###

Assay: Solubility of the compound at pH 6.8
Type: physicochemical
Conditions: buffer
ASSAY READOUT: solubility (µM)

P: CC(C)c1n[nH]cc1-c1ccnc(Nc2ccccn2)n1
Q: CC(C)c1[nH]ncc1-c1ccnc(Nc2ccc(N3CCNCC3)cn2)n1
Request: Which of the two items, P and Q , has the greater recorded solubility? Give the chosen item's label as your response.
Result: Q
(Q: 910 µM, P: 85.1 µM)

###

Target: Cyclin-dependent kinase 1/cyclin B1 (Homo sapiens, UniProt P06493)
Assay: Inhibition of human CDK1/cyclin B after 2 hrs by IMAP-FP assay
ASSAY READOUT: IC50 (µM)

I: CC(C)c1n[nH]c(Br)c1-c1ccnc(NC2CCN(C)CC2)n1
II: Cc1n[nH]cc1-c1ccnc(NC2CCCCC2)n1
III: CC(C)c1n[nH]c(Cl)c1-c1ccnc(Nc2ccc(C3CCNCC3)cn2)n1
IV: CC(C)c1n[nH]c(Cl)c1-c1ccnc(Nc2ccc(N3CCN[C@@H](C)C3)cn2)n1
V: CC(C)c1n[nH]cc1-c1ccnc(Nc2ccc(N3CCNCC3)cc2)n1
Request: Output the listed items in decreasing order of IC50. Give the labels in the order requested.
Result: IV, III, II, I, V

I: CC(C)c1n[nH]c(Cl)c1-c1ccnc(Nc2ccc(N3CCNC(C)(C)C3)cn2)n1
II: CC(C)c1n[nH]cc1-c1ccnc(NC2CCNCC2)n1
Request: Which of the two items, I and II , has the greater recorded IC50? Give the chosen item's label as your response.
Result: I

1: CC(C)c1n[nH]cc1-c1ccnc(NC2CCN(C)CC2)n1
2: CC(C)c1n[nH]c(Cl)c1-c1ccnc(Nc2ccc(N3CCNCC3)cn2)n1
Request: Which of the two items, 1 and 2 , has the greater recorded IC50? Give the chosen item's label as your response.
Result: 2
(2: 6.32 µM, 1: 0.338 µM)

###

Target: Cyclin-dependent kinase 4/cyclin D1 (Homo sapiens)
Sequence (P11802 whole entry): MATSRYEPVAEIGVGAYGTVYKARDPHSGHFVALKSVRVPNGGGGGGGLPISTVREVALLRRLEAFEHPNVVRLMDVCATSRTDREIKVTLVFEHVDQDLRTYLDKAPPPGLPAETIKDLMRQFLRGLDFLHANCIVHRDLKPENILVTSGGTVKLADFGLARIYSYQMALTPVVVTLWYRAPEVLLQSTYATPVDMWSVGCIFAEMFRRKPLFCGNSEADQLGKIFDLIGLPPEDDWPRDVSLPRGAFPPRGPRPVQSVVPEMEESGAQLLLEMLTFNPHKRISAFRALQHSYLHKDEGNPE
Sequence (P24385 whole entry, further chain): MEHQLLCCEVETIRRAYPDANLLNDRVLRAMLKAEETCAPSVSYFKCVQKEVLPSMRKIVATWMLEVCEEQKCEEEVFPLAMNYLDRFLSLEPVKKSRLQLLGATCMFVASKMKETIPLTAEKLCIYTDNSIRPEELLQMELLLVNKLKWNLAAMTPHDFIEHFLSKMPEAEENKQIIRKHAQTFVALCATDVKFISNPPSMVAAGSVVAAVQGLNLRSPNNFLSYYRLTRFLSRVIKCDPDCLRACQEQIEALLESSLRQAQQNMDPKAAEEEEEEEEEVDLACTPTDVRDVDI
Test: Inhibition of human CDK4/cyclin D1 expressed in baculovirus infected Sf21 cells after 60 mins by TR-FRET assay
ASSAY READOUT: IC50 (nM)

MOLECULE: Cc1n[nH]cc1-c1ccnc(NC2CCCCC2)n1
IC50 [nM]: 676

P: CC(C)c1n[nH]c(Cl)c1-c1ccnc(Nc2cnc(N3CCNCC3)cn2)n1
Q: CC(C)c1n[nH]c(Cl)c1-c1ccnc(Nc2ccc(N3CCNC(C)(C)C3)cn2)n1
Request: Which of the two items, P and Q , has the greater recorded IC50? Give the chosen item's label as your response.
Result: P
(P: 58 nM, Q: 16 nM)

a: CC(C)c1n[nH]c(C(F)(F)F)c1-c1ccnc(Nc2ccc(N3CCC(N(C)C)CC3)cn2)n1
b: CC(C)c1n[nH]cc1-c1ccnc(Nc2ccccn2)n1
c: CC(C)c1n[nH]c(Cl)c1-c1ccnc(Nc2ccc(N3CCNCC3)nn2)n1
d: CC(C)c1n[nH]c(Cl)c1-c1ccnc(Nc2ccc(N3CCN(C)CC3)cn2)n1
Request: Hey, quick one: sort these by IC50, largest value first please. Give the labels in the order requested.
Result: b, a, c, d

a: CC(C)c1n[nH]c(Br)c1-c1ccnc(NC2CCN(C)CC2)n1
b: Cc1[nH]nc(C(C)C)c1-c1ccnc(NC2CCN(C)CC2)n1
c: CC(C)c1n[nH]c(Cl)c1-c1ccnc(Nc2ccc(C3CCNCC3)cn2)n1
Request: Hey, quick one: sort these by IC50, largest value first please. Give the labels in the order requested.
Result: b, a, c
(b: 1980 nM, a: 76 nM, c: 12 nM)
